- method: Cocrystal screening by slurry method (Comparative Examples 1-1 to 1-6), powder X-ray diffraction
- Type: physicochemical
- Set-up: key: A cocrystal was completely formed.; B: A mixture of a cocrystal and the host compound or guest compound was formed.; C: A cocrystal was not formed (a mixture of the host compound and the guest compound was formed)
- condition_parameters: host theophylline, slurry summary: A if a cocrystal was formed in any one of Comparative Examples 1-1 to 1-6
measurement_kind: Cocrystal formation, Comparative Example 1*

Examples with their reported Cocrystal formation, Comparative Example 1* follow.
> print(dat)
                                   compound  measured.value
1           O=C(O)/C=C\C(=O)O [Maleic acid]               A
2            C/C=C/C=C/C(=O)O [Sorbic acid]               A
3  N=C(N)NCCC[C@H](N)C(=O)O [L(+)-Arginine]               A
4       O=C1NS(=O)(=O)c2ccccc21 [Saccharin]               A
5                O=C(O)C(=O)O [Oxalic acid]               A

Working through the 7 compounds below one at a time, give Cocrystal formation, Comparative Example 1* for each.
1. NCC(=O)O [Glycine]
2. O=C(O)CCCC(=O)O [Glutaric acid]
3. O=S(=O)(O)CCS(=O)(=O)O [Ethanedisulfonic acid]
4. NC(=O)c1ccccc1 [Benzamide]
5. O=C(O)c1ccccc1 [Benzoic acid]
6. NC(=O)c1cccnc1 [Nicotinamide]
7. CC(C)C[C@H](N)C(=O)O [L-Leucine]

a:
["C", "C", "A", "A", "C", "A", "C"]

q: Returns the measured Cocrystal formation, Comparative Example 1* for the input compound. Input: O=C(O)CC(O)(CC(=O)O)C(=O)O [Citric acid]
a: A

---

- method: Cocrystal screening by slurry method (Comparative Examples 4-1 to 4-6), powder X-ray diffraction
- Format: physicochemical
- Design: key: A cocrystal was completely formed.; B: A mixture of a cocrystal and the host compound or guest compound was formed.; C: A cocrystal was not formed (a mixture of the host compound and the guest compound was formed)
- condition_parameters: host carbamazepine, slurry in ethanol, room temperature 7 days
measurement_kind: Cocrystal formation, Comparative Example 4-2

Examples with their reported Cocrystal formation, Comparative Example 4-2 follow.
> print(dat)
                                    compound  measured.value
 1  N=C(N)NCCC[C@H](N)C(=O)O [L(+)-Arginine]               C
 2             NC(=O)c1cccnc1 [Nicotinamide]               A
 3           O=C(O)CCCC(=O)O [Glutaric acid]               C
 4              O=C(O)CC(=O)O [Malonic acid]               C
 5           O=C(O)/C=C\C(=O)O [Maleic acid]               A
 6  O=C(O)CC(O)(CC(=O)O)C(=O)O [Citric acid]               C
 7             O=C(O)c1ccccc1 [Benzoic acid]               C
 8                NC(=O)c1ccccc1 [Benzamide]               A
 9       O=C1NS(=O)(=O)c2ccccc21 [Saccharin]               A
10            C/C=C/C=C/C(=O)O [Sorbic acid]               C

Working through the 4 compounds below one at a time, give Cocrystal formation, Comparative Example 4-2 for each.
1. O=S(=O)(O)CCS(=O)(=O)O [Ethanedisulfonic acid]
2. O=C(O)C(=O)O [Oxalic acid]
3. NCC(=O)O [Glycine]
4. CC(C)C[C@H](N)C(=O)O [L-Leucine]

a:
["A", "C", "C", "C"]

---

- method: Cocrystal screening by slurry method (Comparative Examples 1-1 to 1-6), powder X-ray diffraction
- Format: physicochemical
- Design: key: A cocrystal was completely formed.; B: A mixture of a cocrystal and the host compound or guest compound was formed.; C: A cocrystal was not formed (a mixture of the host compound and the guest compound was formed)
- condition_parameters: host theophylline, slurry in ethanol, room temperature 7 days
measurement_kind: Cocrystal formation, Comparative Example 1-2

Examples with their reported Cocrystal formation, Comparative Example 1-2 follow.
> print(dat)
                          compound  measured.value
1  O=C(O)CCCC(=O)O [Glutaric acid]               C
2  O=C(O)/C=C\C(=O)O [Maleic acid]               C
3       NC(=O)c1ccccc1 [Benzamide]               C
4    O=C(O)c1ccccc1 [Benzoic acid]               C

Working through the 3 compounds below one at a time, give Cocrystal formation, Comparative Example 1-2 for each.
1. NC(=O)c1cccnc1 [Nicotinamide]
2. O=C1NS(=O)(=O)c2ccccc21 [Saccharin]
3. O=S(=O)(O)CCS(=O)(=O)O [Ethanedisulfonic acid]

a:
B
A
A

---

- method: Cocrystal screening by heat melting 1-menthol (Example 2), powder X-ray diffraction and thermal analysis
- Type: physicochemical
- Design: key: A cocrystal was completely formed.; B: A mixture of a cocrystal and the host compound or guest compound was formed.; C: A cocrystal was not formed (a mixture of the host compound and the guest compound was formed)
- condition_parameters: host carbamazepine, equimolar guest, 1-menthol added, 10 hours at 80° C.
measurement_kind: Cocrystal formation, Example 2

> print(dat)
                                   molecule                measurement.kind  measured.value
1                              O=C(O)C(=O)O  Cocrystal formation, Example 2               A
2                   O=C1NS(=O)(=O)c2ccccc21  Cocrystal formation, Example 2               A
3  N=C(N)NCCC[C@H](N)C(=O)O [L(+)-Arginine]  Cocrystal formation, Example 2               C
4             NC(=O)c1cccnc1 [Nicotinamide]  Cocrystal formation, Example 2               A

---

- method: Cocrystal screening by slurry method (Comparative Examples 1-1 to 1-6), powder X-ray diffraction
- Format: physicochemical
- Set-up: key: A cocrystal was completely formed.; B: A mixture of a cocrystal and the host compound or guest compound was formed.; C: A cocrystal was not formed (a mixture of the host compound and the guest compound was formed)
- condition_parameters: host theophylline, slurry in acetone, room temperature 7 days
measurement_kind: Cocrystal formation, Comparative Example 1-6

> print(dat)
                        compound  measured.value
1     NC(=O)c1ccccc1 [Benzamide]               C
2  NC(=O)c1cccnc1 [Nicotinamide]               A
3  O=C(O)c1ccccc1 [Benzoic acid]               C

---

- method: Cocrystal screening by slurry method (Comparative Examples 1-1 to 1-6), powder X-ray diffraction
- Assay type: physicochemical
- Design: key: A cocrystal was completely formed.; B: A mixture of a cocrystal and the host compound or guest compound was formed.; C: A cocrystal was not formed (a mixture of the host compound and the guest compound was formed)
- condition_parameters: host theophylline, slurry in toluene, room temperature 7 days
measurement_kind: Cocrystal formation, Comparative Example 1-4

> print(dat)
                                   molecule  measured.value
1             NC(=O)c1cccnc1 [Nicotinamide]               A
2  N=C(N)NCCC[C@H](N)C(=O)O [L(+)-Arginine]               C
3                   O=C1NS(=O)(=O)c2ccccc21               C
4                NC(=O)c1ccccc1 [Benzamide]               C

---

- method: Cocrystal screening by slurry method (Comparative Examples 4-1 to 4-6), powder X-ray diffraction
- Type: physicochemical
- Design: key: A cocrystal was completely formed.; B: A mixture of a cocrystal and the host compound or guest compound was formed.; C: A cocrystal was not formed (a mixture of the host compound and the guest compound was formed)
- condition_parameters: host carbamazepine, slurry summary: A if a cocrystal was formed in any one of Comparative Examples 4-1 to 4-6
measurement_kind: Cocrystal formation, Comparative Example 4*

Examples with their reported Cocrystal formation, Comparative Example 4* follow.
> print(dat)
                                   compound  measured.value
1             NC(=O)c1cccnc1 [Nicotinamide]               A
2  N=C(N)NCCC[C@H](N)C(=O)O [L(+)-Arginine]               C
3                    O=S(=O)(O)CCS(=O)(=O)O               A
4                             O=C(O)CC(=O)O               A
5                O=C(O)CC(O)(CC(=O)O)C(=O)O               C

Working through the 3 compounds below one at a time, give Cocrystal formation, Comparative Example 4* for each.
1. O=C(O)C(=O)O
2. O=C(O)c1ccccc1
3. NC(=O)c1ccccc1 [Benzamide]

a:
1. A
2. C
3. A

// provenance: patent US20140045824A1
